# system under test: T1, Recombinant human CD4 (R&D Systems, Cat. 10327-CD) (human, UniProt P01730 26-390, limits assumed)
# T1 construct: Soluble analyte in the Octet assay
# assay protocol: BLI Octet, mAb on anti-mouse Fc sensor, CD4 100/50/25 nM, 1:1 global fit;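 note: antibodies loaded at 10 µg/mL, an unrelated mouse-derived antibody served as internal reference control, association and dissociation phases fitted after Savitzky-Golay smoothing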
Can you tell me kon for the items I'm about to list?
Lab book: enter the figure in M⁻¹ s⁻¹, no units written.

Entry under review: 75110_01K10A (antibody, V domains shown, Tested as antibody purified from AlivaMab Mouse hybridoma supernatant (captured by anti-mouse IgG Fc)) VH: EVQLVESGGALVQPGGSLRLSCAASGFTFRNYDMHWVRQATGKGLEWVSTIGTAGDTYYPGSVKGRFTISRENAKNSLYLQMNSLRAGDTAVYYCARGGDYYYGMDVWGQGTTVTVSS VL: EIVLTQSPDTLSLSPGERATLSCRASQSLSSVYLAWYQQKPGQAPRLLIYGASSRATGIPDRFSGTGSGTDFTLTISRLEPEDFAVYYCQQYGSSPFTFGPGTKVDIK . Reported kon?
23000

Recorded kon for 75110_03L12A (antibody, V domains shown, Tested as antibody purified from AlivaMab Mouse hybridoma supernatant (captured by anti-mouse IgG Fc)) VH: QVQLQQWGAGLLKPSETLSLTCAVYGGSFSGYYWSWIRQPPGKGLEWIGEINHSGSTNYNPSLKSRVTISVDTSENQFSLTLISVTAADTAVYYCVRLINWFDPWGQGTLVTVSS VL: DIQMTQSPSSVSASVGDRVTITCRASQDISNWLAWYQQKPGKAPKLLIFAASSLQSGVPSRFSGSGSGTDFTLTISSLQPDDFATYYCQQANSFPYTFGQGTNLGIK , please?
140000

Bench note: what kon did 75110_05B13A (antibody, V domains shown, Tested as antibody purified from AlivaMab Mouse hybridoma supernatant (captured by anti-mouse IgG Fc)) VH: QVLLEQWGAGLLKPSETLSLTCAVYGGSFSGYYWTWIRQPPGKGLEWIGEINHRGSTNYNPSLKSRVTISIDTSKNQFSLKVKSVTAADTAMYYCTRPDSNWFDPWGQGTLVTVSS VL: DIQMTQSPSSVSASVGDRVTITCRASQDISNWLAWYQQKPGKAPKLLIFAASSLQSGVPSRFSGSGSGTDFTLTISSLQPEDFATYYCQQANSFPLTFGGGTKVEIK show?
110000

What does the data say about its kon? Entry: 75110_04B08A (antibody, V domains shown, Tested as antibody purified from AlivaMab Mouse hybridoma supernatant (captured by anti-mouse IgG Fc)) VH: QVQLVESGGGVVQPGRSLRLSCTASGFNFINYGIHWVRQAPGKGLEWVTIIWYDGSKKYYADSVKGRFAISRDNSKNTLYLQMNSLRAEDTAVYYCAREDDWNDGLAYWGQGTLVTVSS VL: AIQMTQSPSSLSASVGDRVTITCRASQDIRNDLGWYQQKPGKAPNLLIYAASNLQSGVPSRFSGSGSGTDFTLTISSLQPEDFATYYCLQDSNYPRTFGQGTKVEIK
220000

For the binder shown here, 75110_02I16A (antibody, V domains shown, Tested as antibody purified from AlivaMab Mouse hybridoma supernatant (captured by anti-mouse IgG Fc)) VH: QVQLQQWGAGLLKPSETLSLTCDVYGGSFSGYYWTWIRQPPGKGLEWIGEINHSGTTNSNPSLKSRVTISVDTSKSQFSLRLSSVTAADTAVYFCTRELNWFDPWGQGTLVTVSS VL: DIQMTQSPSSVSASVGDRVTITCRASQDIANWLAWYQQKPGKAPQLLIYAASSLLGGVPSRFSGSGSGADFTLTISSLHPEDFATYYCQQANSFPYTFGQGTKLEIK , give the reported kon.
120000

# kon lookup, item 75110_01D24A (antibody, V domains shown, Tested as antibody purified from AlivaMab Mouse hybridoma supernatant (captured by anti-mouse IgG Fc)) VH: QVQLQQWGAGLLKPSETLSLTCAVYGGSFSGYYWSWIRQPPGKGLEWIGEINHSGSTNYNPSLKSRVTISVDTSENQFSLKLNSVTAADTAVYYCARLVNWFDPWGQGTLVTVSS VL: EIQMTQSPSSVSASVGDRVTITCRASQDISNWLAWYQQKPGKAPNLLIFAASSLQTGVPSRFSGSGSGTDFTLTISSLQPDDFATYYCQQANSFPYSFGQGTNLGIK
130000

What value of kon has been recorded for this entry: 75110_02E22A (antibody, V domains shown, Tested as antibody purified from AlivaMab Mouse hybridoma supernatant (captured by anti-mouse IgG Fc)) VH: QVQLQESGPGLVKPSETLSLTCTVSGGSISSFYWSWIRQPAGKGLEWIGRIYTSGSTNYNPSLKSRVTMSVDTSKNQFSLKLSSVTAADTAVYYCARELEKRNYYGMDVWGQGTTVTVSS VL: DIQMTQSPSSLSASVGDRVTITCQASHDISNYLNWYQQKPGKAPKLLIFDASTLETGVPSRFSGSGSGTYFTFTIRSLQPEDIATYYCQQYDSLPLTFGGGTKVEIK
63000

I would be grateful if you could share the reported kon for 75110_05A11A (antibody, V domains shown, Tested as antibody purified from AlivaMab Mouse hybridoma supernatant (captured by anti-mouse IgG Fc)) VH: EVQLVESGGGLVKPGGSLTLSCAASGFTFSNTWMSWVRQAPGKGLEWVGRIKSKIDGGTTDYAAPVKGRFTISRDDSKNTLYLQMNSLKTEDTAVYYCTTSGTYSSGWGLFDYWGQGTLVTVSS VL: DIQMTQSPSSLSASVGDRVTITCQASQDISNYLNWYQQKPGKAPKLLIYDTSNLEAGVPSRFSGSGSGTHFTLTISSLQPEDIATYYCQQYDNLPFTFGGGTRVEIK .
97000

Name the reported kon value associated with the binder 75110_04G16A (antibody, V domains shown, Tested as antibody purified from AlivaMab Mouse hybridoma supernatant (captured by anti-mouse IgG Fc)) VH: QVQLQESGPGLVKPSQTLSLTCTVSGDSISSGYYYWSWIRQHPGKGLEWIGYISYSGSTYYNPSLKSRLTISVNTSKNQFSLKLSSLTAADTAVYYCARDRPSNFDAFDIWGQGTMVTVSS VL: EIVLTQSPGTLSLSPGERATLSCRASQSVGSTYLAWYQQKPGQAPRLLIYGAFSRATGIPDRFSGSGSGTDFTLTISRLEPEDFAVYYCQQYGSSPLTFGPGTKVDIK
89000

Please look up its kon: 75110_02I18A (antibody, V domains shown, Tested as antibody purified from AlivaMab Mouse hybridoma supernatant (captured by anti-mouse IgG Fc)) VH: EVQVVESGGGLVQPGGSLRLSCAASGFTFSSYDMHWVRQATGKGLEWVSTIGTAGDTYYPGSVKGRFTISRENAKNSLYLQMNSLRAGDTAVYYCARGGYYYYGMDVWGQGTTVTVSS VL: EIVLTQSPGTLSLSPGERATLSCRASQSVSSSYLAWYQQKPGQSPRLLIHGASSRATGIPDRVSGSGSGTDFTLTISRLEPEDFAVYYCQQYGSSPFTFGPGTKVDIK
1300

The measured values listed here are drawn from patent US20220112288A1.
